- measurement.description: Toxicity in human RBC assessed as induction of hemolysis at 500 ug/ml incubated for 1 hr by spectrophotometry
- Format: cell-based, Erythrocyte
- stated.conditions: red blood cells (RBC), read-out: Activity
API: label(entry) gives Fulfilled if the entry's hemolysis at 1 h, 500 ug/ml is strictly smaller than 20%; on equality or larger values it gives Not fulfilled.

Examples from the recorded data:
molecule | class.assignment
COc1cc(C=O)ccc1OCc1cn(Cc2ccccc2)nn1 | Not fulfilled
Oc1cccc2cccnc12 [OXYQUINOLINE] | Fulfilled
OC(Cn1cncn1)(Cn1cncn1)c1ccc(F)cc1F [FLUCONAZOLE] | Not fulfilled
COc1cc(C=O)ccc1O [VANILLIN] | Fulfilled

Then there is this molecule:
Please determine if c1ccc(Cn2cc(COc3cccc4cccnc34)nn2)cc1 is below 20% in terms of hemolysis at 1 h, 500 ug/ml.
Fulfilled

The reported numbers originate from ChEMBL document CHEMBL3407499.
